- assayedSystem: T1, CRBN, Q96SW2;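 note: pooled lentiviral library of zinc finger degron-EGFP fusions in mCherry-positive Jurkat cells, FACS-sorted after compound exposure, with degron abundance counted by next-generation sequencing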
- T1 chain: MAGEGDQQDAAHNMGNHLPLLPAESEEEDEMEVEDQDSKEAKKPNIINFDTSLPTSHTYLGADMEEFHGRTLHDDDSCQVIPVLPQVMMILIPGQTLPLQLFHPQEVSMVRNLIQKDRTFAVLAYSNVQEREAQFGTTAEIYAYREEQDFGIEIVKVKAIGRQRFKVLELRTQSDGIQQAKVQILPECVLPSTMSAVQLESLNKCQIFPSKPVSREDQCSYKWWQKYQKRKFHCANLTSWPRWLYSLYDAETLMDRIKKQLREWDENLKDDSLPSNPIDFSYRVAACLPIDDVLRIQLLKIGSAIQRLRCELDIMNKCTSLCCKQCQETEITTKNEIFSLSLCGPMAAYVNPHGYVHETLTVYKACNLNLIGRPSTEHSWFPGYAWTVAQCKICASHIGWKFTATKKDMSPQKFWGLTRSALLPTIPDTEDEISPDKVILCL
- measurementProtocol: log2 fold change of degron read counts, EGFP-low vs EGFP+ sorted cells (limma voom), compound-induced degradation; higher = more compound-induced degradation of the degron-EGFP fusion; degrons are variants of IKZF1/3 zinc finger 2; compound dose not given here
- conditionContext: Jurkat; 18 h; compound: compound 19 (5-tert-butyl-thalidomide)
Whole data set: some 8,300 sequences, median “log2 fold change of degron read counts, EGFP-low vs EGFP+ sorted cells (limma voom), compound-induced degradation” near -1.1, cut for the highest 2% near 3.2. The sample holds the highest values, similar sequences and a random draw of the others, so the mix is not that of the screen.

{"sequenceInput": "FWCDVCGARFTQKGNLLRHIKL [46F_47W_49D_50V_52G_53A_54R_55F_67L_, Q9UKT9]", "log2 fold change of degron read counts": 2.89}
{"sequenceInput": "FCCNVCGAIFTQKGNLLRHIKL [46F_47C_49N_50V_52G_53A_54I_55F_67L_, Q9UKT9]", "log2 fold change of degron read counts": -0.872}
{"sequenceInput": "LYCPICGFVCTQKGNLLRHIKL [46L_47Y_49P_50I_52G_53F_54V_55C_67L_, Q9UKT9]", "log2 fold change of degron read counts": 3.29}
{"sequenceInput": "FYCDVCGARFTQKGNLLRHIKL [46F_47Y_49D_50V_52G_53A_54R_55F_67L_, Q9UKT9]", "log2 fold change of degron read counts": 3.21}
{"sequenceInput": "FKCEICGRWFTQKGNLLRHIKL [46F_47K_49E_50I_52G_53R_54W_55F_67L_, Q9UKT9]", "log2 fold change of degron read counts": -2.8}
{"sequenceInput": "FMCDVCGARFTQKGNLLRHIKL [46F_47M_49D_50V_52G_53A_54R_55F_67L_, Q9UKT9]", "log2 fold change of degron read counts": -1.48}
{"sequenceInput": "FFCPICGHLFTQKGNLLRHIKL [46F_47F_49P_50I_52G_53H_54L_55F_67L_, Q9UKT9]", "log2 fold change of degron read counts": -0.994}
